Test: Solubility of the mesylate salt in aqueous solution at pH 1 to 11 (UV-Vis assay)
Type: physicochemical
Details: aqueous solution, 4 °C, pH 8.17, aqueous buffer, thermodynamic from solid, initial pH 8.17, final pH 8.17
Counter-ions that a name gives are not always drawn.

MOLECULE | UNIT | solubility at 3 h
O=C(NC1CCNCC1)c1n[nH]cc1NC(=O)c1c(Cl)cccc1Cl [mesylate salt, methanesulphonate] | mg/mL | 43.2

----------
Experiment: Solubility of the mesylate salt in aqueous solution at pH 1 to 11 (UV-Vis assay)
Type: physicochemical
Details: aqueous solution, 4 °C, pH 4.99, aqueous buffer, thermodynamic from solid, initial pH 4.99, final pH 4.99
Counter-ions that a name gives are not always drawn.
PROPERTY LABEL: solubility at 3 h (mg/mL)

COMPOUND | VALUE REPORTED
O=C(NC1CCNCC1)c1n[nH]cc1NC(=O)c1c(Cl)cccc1Cl [mesylate salt, methanesulphonate] | 42.4

All figures here come from patent US8013163B2.
